molecular target: IL-17A (agonist in the IL-17RA/IL17RC dimerization assay) (UniProt Q16552 24-155); assay: cell-based or functional assay
Sequence (Q16552 24-155 limits assumed): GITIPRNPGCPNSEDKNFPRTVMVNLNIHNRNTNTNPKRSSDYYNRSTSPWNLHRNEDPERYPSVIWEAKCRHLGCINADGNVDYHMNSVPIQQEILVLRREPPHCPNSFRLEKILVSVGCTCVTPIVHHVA
endpointLabel: IC50 in IL-17RA/IL7RC dimerization assay

Ask: Which value of IC50 in IL-17RA/IL7RC dimerization assay has been reported for Ac-IHITIPADLWDWINK-NH2 [peptide of SEQ ID NO: 171] in the records?
Result: < 10 µM

Ask: And then Ac-VHFTIPADLWEWVRR-NH2 [peptide of SEQ ID NO: 112] , what is it?
Result: < 0.5 µM

Ask: And then Ac-VHFQFPQDLWEWVRR-NH2 [peptide of SEQ ID NO: 150] , what is it?
Result: < 0.5 µM

Ask: And then Ac-IHVTIPADGWDWINK-NH2 [peptide of SEQ ID NO: 202] , what is it?
Result: < 10 µM
